B1: library; numbered along this chain (parent)
chain: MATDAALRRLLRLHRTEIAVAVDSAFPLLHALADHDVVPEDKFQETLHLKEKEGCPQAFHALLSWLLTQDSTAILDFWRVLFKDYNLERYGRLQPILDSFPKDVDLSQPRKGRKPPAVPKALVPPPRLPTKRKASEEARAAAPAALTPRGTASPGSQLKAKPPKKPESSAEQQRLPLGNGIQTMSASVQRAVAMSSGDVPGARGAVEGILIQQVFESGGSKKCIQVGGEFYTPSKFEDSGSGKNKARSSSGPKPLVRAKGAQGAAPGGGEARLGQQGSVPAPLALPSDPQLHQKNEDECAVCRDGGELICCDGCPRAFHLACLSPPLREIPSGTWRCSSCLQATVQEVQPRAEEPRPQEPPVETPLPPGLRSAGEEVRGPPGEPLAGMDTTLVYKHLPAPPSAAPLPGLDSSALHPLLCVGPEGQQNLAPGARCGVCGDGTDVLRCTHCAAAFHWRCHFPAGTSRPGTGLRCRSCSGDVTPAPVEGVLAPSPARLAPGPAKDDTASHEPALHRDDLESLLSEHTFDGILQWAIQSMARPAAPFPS

Variants of: B1
experimental details: AIRE transcriptional activation functional score (insulin promoter-GFP; nonsense median 0, synonymous median 1) (normalised score); higher = higher AIRE activity (more reporter activation)
condition context: with insulin promoter-GFP reporter in HEK293
readout type: AIRE transcriptional activation functional score

See these solved cases before continuing.
> print(dat)
   mutations  measurement
1      Q189K        0.969
2       D36E         1.34
3      D439P       0.0529

Please supply AIRE transcriptional activation functional score for each of the following items, keeping them in order.
1. L414W
2. P430A

[out]
0.979
0.806

Dear colleague, could you send me AIRE transcriptional activation functional score for each of the items below? Thanks.
1. F318G
2. Q342V
3. P381A
4. H507K
5. N86K

[out]
1. 1.39
2. 0.754
3. 0.912
4. 0.802
5. -0.0593

Field: AIRE transcriptional activation functional score. Fill in for each record below.
1. P27L
2. L370Q
3. R316D
4. A142R
5. N295T

[out]
1. 0.398
2. 0.241
3. 1.42
4. 0.685
5. 1.14

What the record says about `L146D` : AIRE transcriptional activation functional score is 1.73
